Every entry's value here was drawn from ChEMBL document CHEMBL1201862.

Screen size: about 41,000 sequences; about 2,700 (6.6%) were called active. Only a sample is shown. Entries with a potency or affinity are not part of this list.
For BT-549, measured GI50 is reported for the entries below.

| Substance | Result units | GI50 |
| --- | --- | --- |
| [Bis(aminomethyl)dimethylsilane]tetrachloroplatinum(IV), CHEMBL2146190 | µM | 16.4 |
| [Bis(aminomethyl)tetramethylenesilane]tetrachloropaltinum(IV), CHEMBL2146189 | µM | 4.99 |
| [Bis(aminomethyl)tetramethylenesilane]dichloropaltinum(II), CHEMBL2146205 | µM | 8.85 |
| CISPLATIN, CHEMBL11359 | µM | 3.73 |
